FYI, the data here is from ChEMBL document CHEMBL5727769.

# Assayed Target: Bromodomain-containing protein 4 (Homo sapiens)
# Test Summary: AlphaLISA Assay: Compounds were diluted by step-down dilution method (final concentration of DMSO was 1%) and added to the wells of a 384 well opti plate at desired concentrations. 5 nM BDR4-BD1 enzyme (produced in-house) and 12 nM of biotinylated substrate were added to the wells, covered and incubated at room temperature (RT) for 1 h. At the end of 1 h 250 ng of GSH acceptor beads were added to the well and incubated for 1 h at RT; then 500 ng of streptavidin donor beads were added and incubated again for 1 h at RT. Plates were read in a Pherastar reader at 680 nm excitation and 570 nm emission
Result Type: IC50 (nM)

- Compound: "CCNC(=O)CC1N=C(c2ccc(Cl)cc2)c2cc(OC)ccc2-c2cn(C)c(=O)cc21 (racemic)"
  Assayed Target: "Bromodomain-containing protein 4 (Homo sapiens)"
  Reported Measurement: 1.6
